# Procedure Text: Rodent pharmacokinetics (rat PK)
# Format: in vivo
# Test Parameters: po, dosed intravenously or orally by gavage, plasma, read-out: F % (bioavailability)
# Protocol: All studies related to handling, care, and treatment of rats in the study were performed according to the guidelines approved by the Institutional Animal Care and Use Committee (IACUC). All rats had access to food and water ad libitum. Rats were dosed intravenously or orally by gavage. Whole blood was collected from the jugular vein immediately prior to dosing and at 5 (intravenously administered drugs only), 15, and 30 min and 1, 2, 4, 8, and 24 h after drug administration. […]
Parameter: bioavailability. Scope: all listed entries.

// known answers, use as guide
>  <Compound>
Cn1c(=O)n(C2CCC(=O)NC2=O)c2cccc([C@@H]3CCN(C[C@H]4CC[C@H](c5nc6cc(C(C)(C)O)c(NC(=O)c7cccc(C(F)(F)F)c7)cc6s5)CC4)C[C@H]3F)c21 (stereo partly shown)

>  <bioavailability>
≤ 5%

$$$$
>  <Compound>
CN(C[C@H]1CC[C@H](c2nc3cc(C(C)(C)O)c(NC(=O)c4cccc(C(F)(F)F)n4)cc3s2)CC1)[C@@H]1CCN(c2cccc3c2n(C)c(=O)n3C2CCC(=O)NC2=O)C[C@H]1F (single isomer, unassigned)

>  <bioavailability>
≥ 5%

$$$$
>  <Compound>
CN(C[C@H]1CC[C@H](c2nc3cc(C(C)(C)O)c(NC(=O)c4cccc(C(F)(F)F)c4)cc3s2)CC1)[C@H]1CCN(c2cccc3c2n(C)c(=O)n3C2CCC(=O)NC2=O)C[C@@H]1F (single isomer, unassigned)

>  <bioavailability>
≥ 5%

$$$$

Form field bioavailability, entry CN(C[C@H]1CC[C@H](c2nc3cc(C(C)(C)O)c(NC(=O)c4cncc(C(F)(F)F)n4)cc3o2)CC1)[C@@H]1CCN(c2cccc3c2n(C)c(=O)n3C2CCC(=O)NC2=O)C[C@H]1F (single isomer, unassigned) : ≥ 5%

###

# Measured Target: IRAK4 (Homo sapiens, UniProt Q9NWZ3)
# Construct: endogenous in cells; host or cells: OCI-LY10
# Sequence (Q9NWZ3 1-460): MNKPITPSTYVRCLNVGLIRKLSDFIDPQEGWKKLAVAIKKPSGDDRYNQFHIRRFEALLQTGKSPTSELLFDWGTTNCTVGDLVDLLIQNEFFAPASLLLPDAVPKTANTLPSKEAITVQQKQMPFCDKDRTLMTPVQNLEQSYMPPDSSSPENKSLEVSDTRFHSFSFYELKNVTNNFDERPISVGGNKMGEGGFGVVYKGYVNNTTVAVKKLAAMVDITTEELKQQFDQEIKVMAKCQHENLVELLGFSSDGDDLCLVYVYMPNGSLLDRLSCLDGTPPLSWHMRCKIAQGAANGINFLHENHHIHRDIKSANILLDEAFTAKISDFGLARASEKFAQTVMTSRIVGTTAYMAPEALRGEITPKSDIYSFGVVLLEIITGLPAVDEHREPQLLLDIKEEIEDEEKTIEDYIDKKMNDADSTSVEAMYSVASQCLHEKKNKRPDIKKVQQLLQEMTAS
# Procedure Text: IRAK4 MSD degradation in OCI-LY10
# Format: cell-based
# Test Parameters: OCI-LY10 cells, 24 hrs, Meso Scale Discovery
Measured Parameter: DC50

// known answers, use as guide
>  <Compound>
COc1cc2nn([C@H]3CC[C@H](CN4CC[C@H](c5cccc6c(C7CCC(=O)NC7=O)nn(C)c56)[C@@H](F)C4)CC3)cc2cc1NC(=O)c1cncc(C#N)c1 (single isomer, unassigned)

>  <Measured Parameter>
DC50

>  <Experimental Value>
< 10 nM

$$$$
>  <Compound>
COc1cc2nc([C@H]3CC[C@H](CN4CC[C@@H](c5cccc6c5n(C)c(=O)n6C5CCC(=O)NC5=O)[C@H](F)C4)CC3)cn2cc1NC(=O)c1cncc(C#N)c1 (stereo partly shown)

>  <Measured Parameter>
DC50

>  <Experimental Value>
> 200 nM

$$$$
>  <Compound>
COc1cc2nn([C@H]3CC[C@H](CN4CC[C@H](c5cccc6c5c(C)nn6C5CCC(=O)NC5=O)[C@@H](F)C4)CC3)cc2cc1NC(=O)c1cncc(C#N)c1 (single isomer, unassigned)

>  <Measured Parameter>
DC50

>  <Experimental Value>
< 10 nM

$$$$
>  <Compound>
Cn1c(=O)n(C2CCC(=O)NC2=O)c2cccc([C@@H]3CCN(C[C@H]4CC[C@H](c5nc6cc(C(C)(C)O)c(NC(=O)c7cncc(C#N)c7)cc6o5)CC4)C[C@H]3F)c21 (stereo partly shown)

>  <Measured Parameter>
DC50

>  <Experimental Value>
10 to 100 nM

$$$$
>  <Compound>
O=C1CCC(Nc2ccc(N3CC(CN4CCN(C[C@H]5CC[C@H](n6cc(NC(=O)c7cnn8ccc(N9C[C@H]%10C[C@@H]9CO%10)nc78)c(C(F)F)n6)CC5)CC4)C3)cc2)C(=O)N1 (stereo partly shown)

>  <Measured Parameter>
DC50

>  <Experimental Value>
10 to 100 nM

$$$$
>  <Compound>
Cn1c(=O)n(C2CCC(=O)NC2=O)c2cccc(C#CCN3CCN(C[C@H]4CC[C@H](n5cc(NC(=O)c6cnn7ccc(N8C[C@H]9C[C@@H]8CO9)nc67)c(C(F)F)n5)CC4)C(=O)C3)c21 (stereo partly shown)

>  <Measured Parameter>
DC50

>  <Experimental Value>
< 10 nM

$$$$
>  <Compound>
Cn1c(=O)n(C2CCC(=O)NC2=O)c2cccc(C#CCOC[C@H]3CC[C@H](n4cc(NC(=O)c5cnn6ccc(N7C[C@H]8C[C@@H]7CO8)nc56)c(C(F)F)n4)CC3)c21 (stereo partly shown)

>  <Measured Parameter>
DC50

>  <Experimental Value>
10 to 100 nM

$$$$
>  <Compound>
Cn1c(=O)n([C@H]2CCC(=O)NC2=O)c2cccc([C@@H]3CCN(C[C@H]4CC[C@H](c5nc6cc(C(C)(C)O)c(NC(=O)c7cncc(C#N)c7)cc6s5)CC4)C[C@H]3F)c21 (single isomer, unassigned)

>  <Measured Parameter>
DC50

>  <Experimental Value>
< 10 nM

$$$$
>  <Compound>
COc1cc2nc([C@H]3CC[C@H](CN4CC[C@H](c5cccc6c5n(C)c(=O)n6C5CCC(=O)NC5=O)[C@@H](F)C4)CC3)sc2cc1NC(=O)c1cccc(C(F)(F)F)n1 (single isomer, unassigned)

>  <Measured Parameter>
DC50

>  <Experimental Value>
> 200 nM

$$$$

API: the following record is the query input.
Form field DC50, entry Cn1c(=O)n(C2CCC(=O)NC2=O)c2cccc(N3CC(OC[C@H]4CC[C@H](n5cc6cc(NC(=O)c7cccc(C(F)(F)F)n7)ccc6n5)CC4)C3)c21 (stereo partly shown) : > 200 nM

###

# Measured Target: IRAK4 (Homo sapiens)
# Construct: endogenous in cells; host or cells: OCI-LY10
# Procedure Text: IRAK4 MSD degradation in OCI-LY10
# Type: cell-based
# Test Parameters: OCI-LY10 cells, 24 hrs, Meso Scale Discovery
Parameter: DC50. Scope: all listed entries.

// known answers, use as guide
>  <Compound>
Cn1c(=O)n(C2CCC(=O)NC2=O)c2cccc(C#CCN3CCN(C[C@H]4CC[C@H](n5cc(NC(=O)c6cnn7ccc(N8C[C@H]9C[C@@H]8CO9)nc67)c(C(F)F)n5)CC4)C[C@H]3C(F)(F)F)c21 (single isomer, unassigned)

>  <DC50>
10 to 100 nM

$$$$
>  <Compound>
CN(C[C@H]1CC[C@H](c2nc3cc(C(C)(C)O)c(NC(=O)c4cccc(C(F)(F)F)n4)cc3o2)CC1)[C@@H]1CCN(c2cccc3c2n(C)c(=O)n3C2CCC(=O)NC2=O)C[C@H]1F (stereo partly shown)

>  <DC50>
< 10 nM

$$$$
>  <Compound>
CN1C(=O)CCC(n2c(=O)n(C)c3c(N4CC(N5CCN([C@H]6CC[C@H](n7cc(NC(=O)c8cnn9ccc(N%10C[C@H]%11C[C@@H]%10CO%11)nc89)c(C(F)F)n7)CC6)CC5)C4)c(F)ccc32)C1=O (stereo partly shown)

>  <DC50>
> 200 nM

$$$$

API: the following record is the query input.
Form field DC50, entry CN(C[C@H]1CC[C@H](c2cn3cc(NC(=O)c4cncc(C(F)(F)F)n4)c(C(C)(C)O)cc3n2)CC1)[C@H]1CCN(c2cccc3c2n(C)c(=O)n3C2CCC(=O)NC2=O)C[C@@H]1F (single isomer, unassigned) : < 10 nM

###

Parameter: DC50. Scope: all listed entries.
# Measured Target: IRAK4 (Homo sapiens)
# Construct: endogenous in cells; host or cells: OCI-LY10
# Sequence (Q9NWZ3 1-460): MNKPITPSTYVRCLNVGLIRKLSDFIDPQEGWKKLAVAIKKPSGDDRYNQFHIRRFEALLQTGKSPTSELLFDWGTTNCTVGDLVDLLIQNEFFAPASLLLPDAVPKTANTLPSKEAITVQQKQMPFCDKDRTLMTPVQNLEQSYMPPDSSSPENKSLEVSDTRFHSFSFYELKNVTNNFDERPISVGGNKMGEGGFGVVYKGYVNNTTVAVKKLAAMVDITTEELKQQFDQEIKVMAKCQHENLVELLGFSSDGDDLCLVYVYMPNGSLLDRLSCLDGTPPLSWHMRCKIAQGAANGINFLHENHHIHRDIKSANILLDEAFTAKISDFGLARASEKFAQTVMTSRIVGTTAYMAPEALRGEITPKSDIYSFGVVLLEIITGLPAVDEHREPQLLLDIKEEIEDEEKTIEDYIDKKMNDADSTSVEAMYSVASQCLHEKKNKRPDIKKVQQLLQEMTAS
# Procedure Text: IRAK4 MSD degradation in OCI-LY10
# Type: cell-based
# Test Parameters: OCI-LY10 cells, 24 hrs, Meso Scale Discovery

// known answers, use as guide
>  <Molecule>
CN(C[C@H]1CC[C@H](c2cc3cc(NC(=O)c4cncc(C(F)(F)F)n4)ccn3n2)CC1)[C@@H]1CCN(c2cccc3c2n(C)c(=O)n3C2CCC(=O)NC2=O)C[C@H]1F (single isomer, unassigned)

>  <Experimental Value>
> 0.2 µM

$$$$
>  <Molecule>
Cn1c(=O)n(C2CCC(=O)NC2=O)c2cccc(N3CC4(CCN(C[C@H]5CC[C@H](n6cc7cc(NC(=O)c8cncc(C#N)c8)c(C(C)(C)O)cc7n6)CC5)CC4(F)F)C3)c21 (stereo partly shown)

>  <Experimental Value>
< 0.01 µM

$$$$
>  <Molecule>
Cn1c(=O)n(C2CCC(=O)NC2=O)c2cccc([C@@H]3CCN(C[C@H]4CC[C@H](c5nc6cc(C(C)(C)O)c(NC(=O)c7cncc(C(F)(F)F)c7)cc6s5)CC4)C[C@H]3F)c21 (stereo partly shown)

>  <Experimental Value>
< 0.01 µM

$$$$

Form field DC50, entry Cn1c(=O)n(C2CCC(=O)NC2=O)c2cccc(N3CCN(C[C@H]4CC[C@H](n5cc6cc(NC(=O)c7cncc(C(F)(F)F)n7)ccc6n5)CC4)[C@H](C(F)(F)F)C3)c21 (stereo partly shown) : 0.01 to 0.1 µM

Form field DC50, entry Cn1c(=O)n(C2CCC(=O)NC2=O)c2cccc([C@@H]3CCN(C[C@H]4CC[C@H](n5cc6cc(NC(=O)c7cc(C(F)(F)F)cnn7)ccc6n5)CC4)C[C@H]3F)c21 (stereo partly shown) : > 0.2 µM

Form field DC50, entry Cn1c(=O)n(C2CCC(=O)NC2=O)c2cccc(C#CCN3CCN(C[C@H]4CC[C@H](n5cc(NC(=O)c6cnn7ccc(N8C[C@H]9C[C@@H]8CO9)nc67)c(C(F)F)n5)CC4)CC3=O)c21 (stereo partly shown) : < 0.01 µM

Form field DC50, entry COc1cc2nc([C@H]3CC[C@H](CN4CC[C@@H](c5cccc6c5n(C)c(=O)n6C5CCC(=O)NC5=O)[C@H](F)C4)CC3)sc2cc1NC(=O)c1cncc(C(F)(F)F)n1 (stereo partly shown) : 0.01 to 0.1 µM

Form field DC50, entry COc1cc2nn([C@H]3CC[C@H](CN4CCC5(CC4)CCN(c4cccc6c4c(C)nn6C4CCC(=O)NC4=O)CC5)CC3)cc2cc1NC(=O)c1cncc(C)c1 (stereo partly shown) : 0.01 to 0.1 µM

Form field DC50, entry COc1cc2nn([C@H]3CC[C@H](CN4CCC5(CCN(c6cccc7c6n(C)c(=O)n7C6CCC(=O)NC6=O)CC5)C(F)(F)C4)CC3)cc2cc1NC(=O)c1cccc(C(F)(F)F)c1 (stereo partly shown) : 0.01 to 0.1 µM

Form field DC50, entry N#Cc1cncc(C(=O)Nc2cc3cn([C@H]4CC[C@H](CN5CCN(CC(=O)Nc6cccc7c(C8CCC(=O)NC8=O)noc67)CC5)CC4)nc3cn2)c1 (stereo partly shown) : > 0.2 µM
